# tested.on: HLA-B*44:02
# run.description: IEDB peptide-MHC binding, purified MHC/competitive/radioactivity; filed as Kd, often an IC50 or EC50 that approximates it; bounds were set here for any values at or beyond the usual limits of such assays
# setup.conditions: source organism: Dengue virus 4 Philippines/H241/1956
recorded.endpoint: pKd
A value of pKd is the negative decimal logarithm of a concentration given in moles per litre.

Worked examples, 2 sequences total:
QEVPFCSHHF ... 7.91
AERTGEPDY ... 6.41

Short answer for `NDLKYSWKTW` : pKd was 5.57

###

# tested.on: HLA-B*40:01
# run.description: IEDB peptide-MHC binding, purified MHC/competitive/radioactivity; filed as Kd, often an IC50 or EC50 that approximates it; bounds were set here for any values at or beyond the usual limits of such assays
# setup.conditions: source organism: Dengue virus 1 Brazil/97-11/1997
recorded.endpoint: pKd
// returns pKd (minus log10 of molar concentration), number only

pKd measured on `REIVVPCRNQ` = 6.64
